Listed below are compounds with Ki for Bcl-2-like protein 1 (Homo sapiens, UniProt Q07817), each taken from published literature.
Parameter: Ki

Cc1cc(Oc2ccc(Cn3nc4ccc(Cl)cc4c3C(=O)NS(=O)(=O)c3ccc([N+](=O)[O-])c(NCc4ccco4)c3)cc2)cc(C)c1Cl: > 10 µM
O=C(N[C@@H]1CCN(Cc2ccccc2)C1)[C@H]1[C@H](CO)[C@H]2Cn3c(cccc3=O)[C@H]2N1CC1CCCCC1: > 100 µM
Cc1ccc(S(=O)(=O)NC(=O)[C@H](Cc2ccccc2)N2C(=O)N[C@@H](Cc3ccc(-c4cccc(C)c4)cc3)C2=O)cc1: > 50 µM
CN(C)CC[C@H](CSc1ccccc1)Nc1ccc(S(=O)(=O)NC(=O)c2ccc(N3CCN(Cc4ccccc4N4CCOCC4)CC3)cc2)cc1[N+](=O)[O-]: < 0.0005 µM

---

System: Bcl-2-like protein 1 (Homo sapiens) | Read-out: pKi | Origin: multiple publications
pKi: −log10 of the molar value.
Parameter: pKi

Cc1cc(OCCCc2c3n(c4c(-c5c(C)nn(C)c5C)c(Cl)ccc24)CCCN(c2cn(C)c4cc(C(=O)O)ccc24)C3=O)cc(C)c1Cl: < 4.44
O=C(O)[C@@H]1C=C[C@@H]2C[C@H]3[C@H](CCCc4ccc(O)c(O)c4)[C@H]4C=C[C@@H]1[C@@H]2[C@H]43 (relative stereo): < 4.00
CN(C)CC[C@H](CSc1ccccc1)Nc1ccc(S(=O)(=O)NC(=O)c2ccc(N3CCN(Cc4ccccc4C(F)(F)F)CC3)cc2)cc1[N+](=O)[O-]: > 9.30
Cc1cc(Oc2ccc(Cn3nc4ccc(Cl)cc4c3C(=O)NS(=O)(=O)c3ccc([N+](=O)[O-])c(NCc4cccnc4)c3)cc2)cc(C)c1Cl: < 5.00
Cc1cc(Oc2ccc(Cn3nc4ccc(Cl)cc4c3C(=O)NS(=O)(=O)c3ccc(NCc4ccco4)c([N+](=O)[O-])c3)cc2)cc(C)c1Cl: < 5.00

---

pKi: −log10 of the molar value.
The molecules below each have a reported pKi tested on Bcl-2-like protein 1 (Homo sapiens, UniProt Q07817); the values come from various publications.
Sequence (Q07817 whole entry): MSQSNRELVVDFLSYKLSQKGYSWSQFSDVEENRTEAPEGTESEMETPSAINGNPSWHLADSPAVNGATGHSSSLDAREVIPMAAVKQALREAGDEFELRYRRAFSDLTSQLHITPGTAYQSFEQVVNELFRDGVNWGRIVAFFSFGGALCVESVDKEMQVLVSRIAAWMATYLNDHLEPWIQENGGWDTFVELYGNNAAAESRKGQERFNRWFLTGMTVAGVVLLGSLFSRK
Parameter: pKi

CC(C)C[C@H](NC(=O)c1ccc(C(=O)N(CC(C)C)C(C)C(=O)O)cc1OC(C)C)C(=O)O (stereo partly drawn): < 4.52
Cc1cc(Oc2ccc(Cn3nc4ccc(Cl)cc4c3C(=O)NS(=O)(=O)c3ccc([N+](=O)[O-])c(NCCc4cccnc4)c3)cc2)cc(C)c1Cl: < 5.00
CN(C)CC[C@H](CSc1ccccc1)Nc1ccc(S(=O)(=O)NC(=O)c2ccc(N3CCN(Cc4ccccc4-c4cccc(Cl)c4)CC3)cc2)cc1[N+](=O)[O-]: > 9.30
CCn1c(C)c(C(=O)O)c(-c2cccc(N3CCN(c4ccc(NS(=O)(=O)c5ccc(N[C@H](CCN(C)C)CSc6ccccc6)c([N+](=O)[O-])c5)cc4)CC3)c2)c1-c1ccc(Cl)cc1: > 9.00
O=C([C@@H]1[C@@H](CO)[C@@H]2Cn3c(cccc3=O)[C@@H]2N1Cc1ccc(Oc2ccccc2)cc1)N1CCC(Cc2ccccc2)CC1: < 4.00
O=C(O)c1ccc(COc2ccc(/C=C3\SC(=S)N(c4ccc(I)cc4)C3=O)cc2)cc1: < 5.00
CN(C)CC[C@H](CSc1ccccc1)Nc1ccc(S(=O)(=O)NC(=O)c2ccc(N3CCN(Cc4ccccc4C4CCCCC4)CC3)cc2)cc1[N+](=O)[O-]: > 9.30
CN(C)CC[C@H](CSc1ccccc1)Nc1ccc(S(=O)(=O)Nc2ccc(N3CCN(c4cccc(-c5c(-c6ccc(Cl)cc6)cn(CC[C@H](O)CO)c5C(=O)NCCCN5CCN(C)CC5)c4)CC3)cc2)cc1[N+](=O)[O-]: > 9.00
